FYI, the data here is from ChEMBL document CHEMBL1153655.

Provide the reported IC50 of each item.
Note: a bare number is incomplete; add the unit.

**Q:** State IC50 (Prothrombin (Homo sapiens, UniProt P00734)) of CS(=O)(=O)NC1(Cc2ccccc2)CCCN(CC(=O)N[C@H]2CCCN(C(=N)N)C2O)C1=O (some centres undefined) .
**A:** 31.9 nM

**Q:** State IC50 (Prothrombin (Homo sapiens, UniProt P00734)) of N=C(N)N1CCC[C@H](NC(=O)CN2CCC[C@@](N)(Cc3ccccc3)C2=O)C1O.O=C(O)C(F)(F)F (some centres undefined) .
**A:** 2.07 nM

**Q:** State IC50 (Prothrombin (Homo sapiens, UniProt P00734)) of N=C(N)N1CCC[C@H](NC(=O)CN2CCCC[C@@](N)(Cc3ccccc3)C2=O)C1O (some centres undefined) .
**A:** 14.9 nM

**Q:** State IC50 (Prothrombin (Homo sapiens, UniProt P00734)) of COC(=O)NC1(Cc2ccccc2)CCCCN(CC(=O)N[C@H]2CCCN(C(=N)N)C2O)C1=O (some centres undefined) .
**A:** 466 nM

**Q:** State IC50 (Prothrombin (Homo sapiens, UniProt P00734)) of N=C(N)N1CCC[C@H](NC(=O)CN2CCC(NS(=O)(=O)Cc3ccccc3)C2=O)C1O (some centres undefined) .
**A:** 125 nM

**Q:** State IC50 (Prothrombin (Homo sapiens, UniProt P00734)) of N=C(N)N1CCC[C@H](NC(=O)CN2CCCC[C@H](NS(=O)(=O)Cc3ccccc3)C2=O)C1O (some centres undefined) .
**A:** 0.71 nM

**Q:** State IC50 (Prothrombin (Homo sapiens, UniProt P00734)) of N=C(N)N1CCC[C@H](NC(=O)CN2CCC[C@](N)(Cc3ccccc3)C2=O)C1O.O=C(O)C(F)(F)F (some centres undefined) .
**A:** 138 nM

**Q:** State IC50 (Prothrombin (Homo sapiens, UniProt P00734)) of N=C(N)N1CCC[C@H](NC(=O)CN2CCCC[C@](N)(Cc3ccccc3)C2=O)C1O.O=C(O)C(F)(F)F (some centres undefined) .
**A:** 193 nM

**Q:** State IC50 (Prothrombin (Homo sapiens, UniProt P00734)) of N=C(N)N1CCC[C@H](NC(=O)CN2CC[C@@](N)(Cc3ccccc3)C2=O)C1O (some centres undefined) .
**A:** 1380 nM

---

# STUDY_TARGET: Coagulation factor X (Homo sapiens, UniProt P00742)
# Sequence (P00742 41-179 limits assumed): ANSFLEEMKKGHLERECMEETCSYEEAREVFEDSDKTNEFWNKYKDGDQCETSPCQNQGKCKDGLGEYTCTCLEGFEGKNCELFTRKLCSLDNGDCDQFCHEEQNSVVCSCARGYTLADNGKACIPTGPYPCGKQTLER
# Sequence (P00742 235-488 limits assumed): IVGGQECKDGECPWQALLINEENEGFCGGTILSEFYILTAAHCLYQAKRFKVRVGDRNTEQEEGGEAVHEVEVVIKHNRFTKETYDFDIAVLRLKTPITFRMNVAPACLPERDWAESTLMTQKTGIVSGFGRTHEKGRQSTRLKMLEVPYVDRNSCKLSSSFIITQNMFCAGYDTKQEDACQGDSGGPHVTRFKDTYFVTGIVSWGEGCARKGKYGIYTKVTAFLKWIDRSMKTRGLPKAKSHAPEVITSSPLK
# METHOD_NOTES: The compound was tested in vitro for inhibitory activity against Coagulation factor X
Provide the reported pIC50 of each item.
pIC50 is defined as minus the log10 of a concentration measured in mol/L.

**Q:** Supply reported pIC50 belonging to this compound: N=C(N)N1CCC[C@H](NC(=O)CN2CCCC[C@H](NS(=O)(=O)Cc3ccccc3)C2=O)C1O (some centres not stated)
**A:** 7.64

**Q:** Supply reported pIC50 belonging to this compound: COC(=O)NC1(Cc2ccccc2)CCCCN(CC(=O)N[C@H]2CCCN(C(=N)N)C2O)C1=O (some centres not stated)
**A:** 5.60

**Q:** Supply reported pIC50 belonging to this compound: N=C(N)N1CCC[C@H](NC(=O)CN2CC[C@@](N)(Cc3ccccc3)C2=O)C1O (some centres not stated)
**A:** 5.60
